Could you please report measured inhibition at 30 µM for the items listed next?
- SYSTEM NAME: hERG (Homo sapiens, UniProt Q12809)
- Sequence (Q12809 whole entry): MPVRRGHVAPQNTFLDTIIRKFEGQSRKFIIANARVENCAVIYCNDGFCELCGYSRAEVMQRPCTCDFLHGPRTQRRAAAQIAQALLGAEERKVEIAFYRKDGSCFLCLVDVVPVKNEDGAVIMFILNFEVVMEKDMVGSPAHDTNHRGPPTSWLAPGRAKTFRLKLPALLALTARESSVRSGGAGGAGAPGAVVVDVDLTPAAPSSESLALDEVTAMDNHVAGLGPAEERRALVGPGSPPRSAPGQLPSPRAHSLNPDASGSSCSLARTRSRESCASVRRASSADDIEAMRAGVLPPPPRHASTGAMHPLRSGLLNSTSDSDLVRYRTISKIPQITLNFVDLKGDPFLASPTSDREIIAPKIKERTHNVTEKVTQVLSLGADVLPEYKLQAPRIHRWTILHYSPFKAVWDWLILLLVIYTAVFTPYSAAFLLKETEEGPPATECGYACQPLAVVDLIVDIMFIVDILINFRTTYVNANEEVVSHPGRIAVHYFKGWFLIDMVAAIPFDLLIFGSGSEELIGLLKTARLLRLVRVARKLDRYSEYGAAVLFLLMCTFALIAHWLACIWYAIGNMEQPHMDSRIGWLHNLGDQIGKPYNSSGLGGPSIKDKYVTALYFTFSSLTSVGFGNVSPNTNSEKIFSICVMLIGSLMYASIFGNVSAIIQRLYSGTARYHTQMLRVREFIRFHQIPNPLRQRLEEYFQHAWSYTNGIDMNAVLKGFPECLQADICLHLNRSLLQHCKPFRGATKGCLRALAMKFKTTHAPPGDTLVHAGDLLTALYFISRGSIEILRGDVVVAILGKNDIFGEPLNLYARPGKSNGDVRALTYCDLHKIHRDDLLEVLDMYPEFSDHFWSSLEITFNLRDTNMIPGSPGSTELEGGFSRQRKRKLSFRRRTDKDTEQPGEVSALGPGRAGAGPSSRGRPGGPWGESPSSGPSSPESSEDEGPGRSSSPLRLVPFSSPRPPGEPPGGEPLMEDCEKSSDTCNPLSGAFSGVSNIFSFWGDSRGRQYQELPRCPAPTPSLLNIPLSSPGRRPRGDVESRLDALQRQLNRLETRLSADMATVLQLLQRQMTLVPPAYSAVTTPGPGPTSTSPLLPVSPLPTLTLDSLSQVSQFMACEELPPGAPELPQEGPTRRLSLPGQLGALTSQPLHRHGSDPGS
- ASSAY OVERVIEW: hERG Assay (QPatch automated patch clamp; single-concentration assay at 30 μM and pIC50 assay)
- APPLIED CONDITIONS: human, CHO cells stably expressing hERG
Answers are plain numbers, in %.

Some solved cases for reference:
INSERT INTO results (smiles, value_unit, value_measured) VALUES
  ('CN[C@@H]1CCN(c2cc(-c3c(C)n[nH]c3C)nc(N)n2)C1', '%', 21),
  ('CN[C@@H]1CCN(c2cc(-c3[nH]ncc3OC)nc(N)n2)C1', '%', 14);

Now consider the entry below.
// sample CN[C@@H]1CCN(c2cc(-c3cnn(C4CCC4)c3)nc(N)n2)C1 , its inhibition at 30 µM was 77

Reference for the values: patent US12234227B2
